target: Glutamate NMDA receptor; assay: Tested for the binding of [3H]dizocilpine to DEPC (diethylpyrocarbonate) membranes of rat
Known IC50 of a selection of compounds
# unit: µM | format: bare number

Prompt: Reported IC50 for Glutamate NMDA receptor, given Nc1ccc2nc3ccc(N)cc3[n+](-c3ccccc3)c2c1 [PHENOSAFRANINE] ?
Response: 2.7

Prompt: Lab note: need IC50 with Glutamate NMDA receptor for entry CC[N+](C)(CC)CCC[n+]1c(-c2ccccc2)c2cc(N)ccc2c2ccc(N)cc21 [PROPIDIUM] , please look it up.
Response: 6.8

Prompt: Form: Entry = CC[n+]1c(-c2ccccc2)c2cc(N)ccc2c2ccc(N)cc21 [HOMIDIUM BROMIDE] | System = Glutamate NMDA receptor | IC50 = ____
Response: 3.13

Prompt: # returns recorded IC50 (system: Glutamate NMDA receptor) for Cc1cc2nc3cc(C)c(N)cc3[n+](-c3ccccc3)c2cc1N
Response: 3.95

----------
Readings of IC50 for the listed molecules
biological target: Glutamate NMDA receptor; experiment: Tested for the binding of [3H]dizocilpine to NMDA receptor in rat brain membranes in the presence of 500 uM spermidine; type: cell membranes
Value expressed in µM; do not type the unit.

>>> df
                                   molecule  metric  units_symbol  observed_value
0  CC[n+]1c(-c2ccccc2)c2cc(N)ccc2c2ccc(N)cc21 [HOMIDIUM BROMIDE]    IC50            µM            7.34
1  Cc1cc2nc3cc(C)c(N)cc3[n+](-c3ccccc3)c2cc1N    IC50            µM            2.21

Now consider the entry below.
Prompt: Quick check: IC50 of Nc1ccc2nc3ccc(N)cc3[n+](-c3ccccc3)c2c1 [PHENOSAFRANINE] ?
Response: 4.33

These entries and their values trace back to ChEMBL document CHEMBL1127101.
